Listed here: items and their measured pIC50.
biological target: Bifunctional epoxide hydrolase 2 (Homo sapiens); assay: Inhibition of human recombinant soluble epoxide hydrolase by kinetic fluorescent assay
Scale note: pIC50 = -log10(concentration in M).

# annotated cases, reported pIC50 shown
1. O=C(NC1CCCCCC1)N[C@H]1CC[C@@H](Oc2ccc(F)cc2)CC1	9.30
2. O=C(Nc1cccc(C(=O)O)c1)N[C@H]1CC[C@@H](Oc2ccc(F)cc2)CC1	6.23
3. O=C(Nc1ccc(I)cc1)N[C@H]1CC[C@@H](Oc2ccc(F)cc2)CC1	9.00
4. O=C(Nc1ccc(Br)cc1)N[C@H]1CC[C@@H](Oc2ccc(F)cc2)CC1	9.22

Let us move to another entry and its pIC50.
[in] Requested field: pIC50. Item: "C[C@@H](NC(=O)NC12CC3CC(CC(C3)C1)C2)c1ccccc1"
[out] 7.00

---

Listed here: items and their measured pIC50.
Target: Bifunctional epoxide hydrolase 2 (Homo sapiens)
Sequence (P34913 whole entry): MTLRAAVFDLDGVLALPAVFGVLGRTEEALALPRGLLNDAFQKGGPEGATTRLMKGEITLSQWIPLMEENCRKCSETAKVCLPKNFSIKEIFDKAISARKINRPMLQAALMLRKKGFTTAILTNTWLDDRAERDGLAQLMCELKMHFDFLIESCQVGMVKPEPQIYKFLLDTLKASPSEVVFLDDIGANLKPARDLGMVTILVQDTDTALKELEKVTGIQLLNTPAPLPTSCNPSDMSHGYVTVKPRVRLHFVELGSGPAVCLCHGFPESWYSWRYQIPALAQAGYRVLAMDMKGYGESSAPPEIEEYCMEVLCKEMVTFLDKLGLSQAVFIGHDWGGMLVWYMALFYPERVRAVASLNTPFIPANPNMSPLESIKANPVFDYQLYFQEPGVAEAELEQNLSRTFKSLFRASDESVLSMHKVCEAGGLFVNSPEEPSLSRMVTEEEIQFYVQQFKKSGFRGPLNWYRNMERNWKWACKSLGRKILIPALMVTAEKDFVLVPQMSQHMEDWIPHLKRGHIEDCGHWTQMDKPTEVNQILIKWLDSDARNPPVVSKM
Experiment: Inhibition of human recombinant soluble epoxide hydrolase by kinetic fluorescent assay
Scale note: pIC50 = -log10(concentration in M).

[in] Requested field: pIC50. Item: "CN(C)c1cccc2c(S(=O)(=O)NCCNC(=O)NC34CC5CC(CC(C5)C3)C4)cccc12"
[out] 7.52

[in] Requested field: pIC50. Item: "Cc1cccc(C)c1NC(=O)N[C@H]1CC[C@@H](Oc2ccc(F)cc2)CC1"
[out] 5.92

[in] Requested field: pIC50. Item: "CC(C)c1cccc(C(C)C)c1NC(=O)N[C@H]1CC[C@@H](Oc2ccc(F)cc2)CC1"
[out] 4.30

[in] Requested field: pIC50. Item: "O=C(Nc1ccc(C(F)(F)F)cc1)N[C@H]1CC[C@@H](Oc2ccc(F)cc2)CC1"
[out] 8.92

[in] Requested field: pIC50. Item: "O=C(Nc1ccccc1OC(F)(F)F)N[C@H]1CC[C@@H](Oc2ccc(F)cc2)CC1"
[out] 7.00

[in] Requested field: pIC50. Item: "O=C(Nc1ccc(Cl)cc1)N[C@H]1CC[C@@H](Oc2ccc(F)cc2)CC1"
[out] 9.15

[in] Requested field: pIC50. Item: "O=C(Nc1c(Cl)cccc1Cl)N[C@H]1CC[C@@H](Oc2ccc(F)cc2)CC1"
[out] 6.03

[in] Requested field: pIC50. Item: "COC(=O)c1cccc(NC(=O)N[C@H]2CC[C@@H](Oc3ccc(F)cc3)CC2)c1"
[out] 8.70

[in] Requested field: pIC50. Item: "COC(=O)c1ccc(NC(=O)N[C@H]2CC[C@@H](Oc3ccc(F)cc3)CC2)cc1"
[out] 8.54
